tested-target: UniProt:Q9EP73
Sequence (Q9EP73 whole entry): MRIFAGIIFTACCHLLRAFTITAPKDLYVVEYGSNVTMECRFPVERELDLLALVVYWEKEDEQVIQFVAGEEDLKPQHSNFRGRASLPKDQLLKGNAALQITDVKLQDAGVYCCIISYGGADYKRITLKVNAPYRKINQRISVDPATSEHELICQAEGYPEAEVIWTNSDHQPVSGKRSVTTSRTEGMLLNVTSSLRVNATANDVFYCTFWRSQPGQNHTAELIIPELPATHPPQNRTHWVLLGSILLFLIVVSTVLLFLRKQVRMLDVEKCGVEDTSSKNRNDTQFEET
method-summary: Inhibition of PD-L1 in mouse splenocytes assessed as increase in INFgamma release
Type: cell-based, Splenocyte
pEC50: −log10 of the molar value.

>  <compound>
C[C@@H](O)[C@H](N)C(=O)NNC(=O)[C@H](CC(N)=O)NC(=O)N[C@@H](CO)C(=O)O

>  <pEC50>
7.57

$$$$
>  <compound>
CC(O)[C@H](NC(=O)N[C@@H](CC(N)=O)c1nnc([C@@H](N)CO)s1)C(=O)O (some centres undefined)

>  <pEC50>
7.47

$$$$
>  <compound>
C[C@H](O)[C@@H](N)C(=O)NNC(=O)[C@@H](CC(N)=O)NC(=O)N[C@H](CO)C(=O)O

>  <pEC50>
7.40

$$$$
>  <compound>
C[C@H](O)[C@H](NC(=O)N[C@@H](CC(N)=O)C(=O)NNC(=O)[C@@H](N)CO)C(=O)O

>  <pEC50>
7.52

$$$$
